molecular target: β-glucanase; construct: gene eglA; native secreted enzyme purified from culture supernatant (ammonium sulfate, DEAE-Cellulose, Sephadex G200); 56 kDa on SDS-PAGE; gene not identified; assayed as CMC hydrolysis; experiment: residual CMC hydrolysis, DNS reducing sugar; assay type: biochemical, Aspergillus niger; conditions: covalent; tryptophanyl reagent; free enzyme; standard assay 0.5% CMC stock, citrate pH 5.0, 40 °C
Reported property: IC50
# output: numeric value plus its unit

Bench note: what IC50 did O=C1CCC(=O)N1Br [N-bromosuccinimide] show?
6.44 mM

====

molecular target: β-glucanase; construct: gene eglA; native secreted enzyme purified from culture supernatant (ammonium sulfate, DEAE-Cellulose, Sephadex G200); 56 kDa on SDS-PAGE; gene not identified; assayed as CMC hydrolysis; assay: residual CMC hydrolysis, DNS reducing sugar; assay type: biochemical, Aspergillus niger; settings: arginyl reagent; printed as 2,3-butanediol, probably 2,3-butanedione meant; free enzyme; standard assay 0.5% CMC stock, citrate pH 5.0, 40 °C
Reported property: IC50 (mM)
One number for each entry, in mM.

Which IC50 reading was recorded for the molecule CC(O)C(C)O (stereo not shown) ?
4.65
